Values from patent US12403128B2

target: Nav1.6 (Homo sapiens, UniProt Q9UQD0); test: % block of Nav1.6 at 100 μM and IC50 (NaV1.6); assay type: cell-based; conditions: NaV1.6; Table 2, MV1060-MV1091; unit inferred; read-out: IC50
# Lookup of reported IC50 keyed by entry
outcome measure: IC50

INSERT INTO assay_data (chemical_smiles, tested_system, outcome_measure, endpoint_value) VALUES
  ('COc1ccccc1-c1nc2cc(Cl)ccc2[nH]1', 'Nav1.6 (Homo sapiens, UniProt Q9UQD0)', 'IC50', '40.1 µM'),
  ('COc1ccc2nc(-c3ccccc3)[nH]c2c1', 'Nav1.6 (Homo sapiens, UniProt Q9UQD0)', 'IC50', '> 100 µM'),
  ('COc1ccc(-c2nc3ccccc3[nH]2)cc1', 'Nav1.6 (Homo sapiens, UniProt Q9UQD0)', 'IC50', '90.2 µM'),
  ('Cc1ccc(-c2nc3ccccc3[nH]2)cc1', 'Nav1.6 (Homo sapiens, UniProt Q9UQD0)', 'IC50', '> 100 µM'),
  ('FC(F)(F)c1ccc(-c2nc3ccccc3[nH]2)cc1', 'Nav1.6 (Homo sapiens, UniProt Q9UQD0)', 'IC50', '> 100 µM'),
  ('O=C(O)c1ccc2nc(-c3ccccc3)[nH]c2c1', 'Nav1.6 (Homo sapiens, UniProt Q9UQD0)', 'IC50', '> 100 µM'),
  ('FC(F)(F)c1ccc2nc(-c3ccccc3)[nH]c2c1', 'Nav1.6 (Homo sapiens, UniProt Q9UQD0)', 'IC50', '24.7 µM'),
  ('COc1ccc(-c2nc3cc(Cl)ccc3[nH]2)cc1', 'Nav1.6 (Homo sapiens, UniProt Q9UQD0)', 'IC50', '> 100 µM'),
  ('Clc1ccccc1-c1nc2ccccc2[nH]1', 'Nav1.6 (Homo sapiens, UniProt Q9UQD0)', 'IC50', '41.6 µM'),
  ('O=[N+]([O-])c1ccc(-c2nc3ccccc3[nH]2)cc1', 'Nav1.6 (Homo sapiens, UniProt Q9UQD0)', 'IC50', '> 100 µM'),
  ('Clc1ccc2nc(-c3ccccc3)[nH]c2c1', 'Nav1.6 (Homo sapiens, UniProt Q9UQD0)', 'IC50', '34.6 µM'),
  ('O=C(O)c1ccccc1-c1nc2ccccc2[nH]1', 'Nav1.6 (Homo sapiens, UniProt Q9UQD0)', 'IC50', '> 100 µM'),
  ('FC(F)(F)c1ccccc1-c1nc2ccccc2[nH]1', 'Nav1.6 (Homo sapiens, UniProt Q9UQD0)', 'IC50', '> 100 µM'),
  ('COc1cccc(-c2nc3ccccc3[nH]2)c1', 'Nav1.6 (Homo sapiens, UniProt Q9UQD0)', 'IC50', '> 100 µM'),
  ('c1ccc(-c2nc3ccccc3[nH]2)cc1', 'Nav1.6 (Homo sapiens, UniProt Q9UQD0)', 'IC50', '> 100 µM'),
  ('O=[N+]([O-])c1ccccc1-c1nc2ccccc2[nH]1', 'Nav1.6 (Homo sapiens, UniProt Q9UQD0)', 'IC50', '> 100 µM'),
  ('O=[N+]([O-])c1cccc(-c2nc3ccccc3[nH]2)c1', 'Nav1.6 (Homo sapiens, UniProt Q9UQD0)', 'IC50', '> 100 µM'),
  ('Clc1cccc(-c2nc3ccccc3[nH]2)c1', 'Nav1.6 (Homo sapiens, UniProt Q9UQD0)', 'IC50', '37 µM'),
  ('O=C(O)c1cccc(-c2nc3ccccc3[nH]2)c1', 'Nav1.6 (Homo sapiens, UniProt Q9UQD0)', 'IC50', '> 100 µM'),
  ('COc1cccc(-c2nc3cc(Cl)ccc3[nH]2)c1', 'Nav1.6 (Homo sapiens, UniProt Q9UQD0)', 'IC50', '29.6 µM'),
  ('COc1ccccc1-c1nc2ccccc2[nH]1', 'Nav1.6 (Homo sapiens, UniProt Q9UQD0)', 'IC50', '> 100 µM'),
  ('O=C(O)c1ccc(-c2nc3ccccc3[nH]2)cc1', 'Nav1.6 (Homo sapiens, UniProt Q9UQD0)', 'IC50', '> 100 µM'),
  ('Cc1ccccc1-c1nc2ccccc2[nH]1', 'Nav1.6 (Homo sapiens, UniProt Q9UQD0)', 'IC50', '> 100 µM');

---

biological target: UniProt:Q9UQD0; experiment: % block of Nav1.6 at 100 μM and IC50 (NaV1.6); assay type: cell-based; conditions: 100 μM compound
Counter-ions that a name gives are not always drawn.
# Lookup of reported inhibition at 100 µM keyed by entry
outcome measure: inhibition at 100 µM (%)

INSERT INTO measurements (molecule, outcome_measure, endpoint_value) VALUES
  ('FC(F)(F)c1ccc2nc(-c3ccccc3)[nH]c2c1', 'inhibition at 100 µM', 90),
  ('O=C(O)c1cccc(-c2nc3ccccc3[nH]2)c1', 'inhibition at 100 µM', 15),
  ('O=C(Nc1cccc(-c2c[nH]c(-c3ccccc3)n2)c1)c1ccccc1 [MV1307, HYDROCHLORIDE]', 'inhibition at 100 µM', 25),
  ('COc1ccc(-c2nc(-c3ccc(NC(=O)c4ccc(Cl)cc4)cc3)c[nH]2)cc1 [MV1306, HYDROCHLORIDE]', 'inhibition at 100 µM', 10),
  ('CCCc1nc(-c2ccc(OC)cc2)[nH]c1C [MV1368, OXALATE]', 'inhibition at 100 µM', 85),
  ('COc1ccc(C(=O)Nc2cccc(-c3c[nH]c(-c4ccc(OC)cc4)n3)c2)cc1 [MV1310, HYDROCHLORIDE]', 'inhibition at 100 µM', 60),
  ('COc1cccc(-c2ncc(C)[nH]2)c1 [MV1357, OXALATE]', 'inhibition at 100 µM', 90),
  ('Cc1nc(-c2cccc(C(F)(F)F)c2)[nH]c1-c1ccccc1 [MV1504, hydrochloride]', 'inhibition at 100 µM', 100),
  ('Cc1nc(-c2cccc(Cl)c2)[nH]c1-c1ccccc1', 'inhibition at 100 µM', 100);

---

experiment: Solubility; type: physicochemical; settings: pH 3, aqueous buffer
outcome measure: solubility (µM)

INSERT INTO results (molecule, endpoint_value) VALUES
  ('c1ccc(-c2c[nH]c(-c3ccccc3)n2)cc1 [MV1115]', 237);

---

# Lookup of reported pIC50 keyed by entry
Target: Nav1.6 (Homo sapiens)
Experiment: Qube assay, NaV1.6
Format: cell-based
Conditions: human isoform; read-out: Qube EP IC50 NaV1.6
Protocol: Evaluation of Compounds on Human Isoforms Using Qube Assay. Compounds were tested using a Qube assay across NaV1.5, NaV1.6 and NaV1.7.
pIC50: −log10 of the molar value. Where a name gives a salt, the structure may show the parent alone.
outcome measure: pIC50

INSERT INTO results (molecule, outcome_measure, endpoint_value) VALUES
  ('CC(=O)Nc1ccc(-c2nc(C)c(-c3ccccc3)[nH]2)cc1 [MV1509, hydrochloride]', 'pIC50', 5.08),
  ('COc1ccc(-c2nc(C)c(-c3ccccc3)[nH]2)cc1O [MV1508, hydrochloride]', 'pIC50', 5.40),
  ('Cc1nc(-c2ccc(Cl)cc2)[nH]c1-c1ccccc1 [MV1502, hydrochloride]', 'pIC50', 6.13),
  ('Cc1nc(-c2cccc(Cl)c2)[nH]c1-c1ccccc1 [MV1505]', 'pIC50', 5.56),
  ('COc1ccc(-c2nc(C)c(-c3ccccc3)[nH]2)cc1 [MV1501, hydrochloride]', 'pIC50', 5.13),
  ('Cc1nc(-c2cccc(C(F)(F)F)c2)[nH]c1-c1ccccc1 [MV1504, hydrochloride]', 'pIC50', 5.48);

---

target: NaV1.7 (Homo sapiens, UniProt Q15858); experiment: Qube assay, NaV1.7; assay type: cell-based; details: human isoform; read-out: Qube EP IC50 NaV1.7
Sequence (Q15858 whole entry, canonical isoform): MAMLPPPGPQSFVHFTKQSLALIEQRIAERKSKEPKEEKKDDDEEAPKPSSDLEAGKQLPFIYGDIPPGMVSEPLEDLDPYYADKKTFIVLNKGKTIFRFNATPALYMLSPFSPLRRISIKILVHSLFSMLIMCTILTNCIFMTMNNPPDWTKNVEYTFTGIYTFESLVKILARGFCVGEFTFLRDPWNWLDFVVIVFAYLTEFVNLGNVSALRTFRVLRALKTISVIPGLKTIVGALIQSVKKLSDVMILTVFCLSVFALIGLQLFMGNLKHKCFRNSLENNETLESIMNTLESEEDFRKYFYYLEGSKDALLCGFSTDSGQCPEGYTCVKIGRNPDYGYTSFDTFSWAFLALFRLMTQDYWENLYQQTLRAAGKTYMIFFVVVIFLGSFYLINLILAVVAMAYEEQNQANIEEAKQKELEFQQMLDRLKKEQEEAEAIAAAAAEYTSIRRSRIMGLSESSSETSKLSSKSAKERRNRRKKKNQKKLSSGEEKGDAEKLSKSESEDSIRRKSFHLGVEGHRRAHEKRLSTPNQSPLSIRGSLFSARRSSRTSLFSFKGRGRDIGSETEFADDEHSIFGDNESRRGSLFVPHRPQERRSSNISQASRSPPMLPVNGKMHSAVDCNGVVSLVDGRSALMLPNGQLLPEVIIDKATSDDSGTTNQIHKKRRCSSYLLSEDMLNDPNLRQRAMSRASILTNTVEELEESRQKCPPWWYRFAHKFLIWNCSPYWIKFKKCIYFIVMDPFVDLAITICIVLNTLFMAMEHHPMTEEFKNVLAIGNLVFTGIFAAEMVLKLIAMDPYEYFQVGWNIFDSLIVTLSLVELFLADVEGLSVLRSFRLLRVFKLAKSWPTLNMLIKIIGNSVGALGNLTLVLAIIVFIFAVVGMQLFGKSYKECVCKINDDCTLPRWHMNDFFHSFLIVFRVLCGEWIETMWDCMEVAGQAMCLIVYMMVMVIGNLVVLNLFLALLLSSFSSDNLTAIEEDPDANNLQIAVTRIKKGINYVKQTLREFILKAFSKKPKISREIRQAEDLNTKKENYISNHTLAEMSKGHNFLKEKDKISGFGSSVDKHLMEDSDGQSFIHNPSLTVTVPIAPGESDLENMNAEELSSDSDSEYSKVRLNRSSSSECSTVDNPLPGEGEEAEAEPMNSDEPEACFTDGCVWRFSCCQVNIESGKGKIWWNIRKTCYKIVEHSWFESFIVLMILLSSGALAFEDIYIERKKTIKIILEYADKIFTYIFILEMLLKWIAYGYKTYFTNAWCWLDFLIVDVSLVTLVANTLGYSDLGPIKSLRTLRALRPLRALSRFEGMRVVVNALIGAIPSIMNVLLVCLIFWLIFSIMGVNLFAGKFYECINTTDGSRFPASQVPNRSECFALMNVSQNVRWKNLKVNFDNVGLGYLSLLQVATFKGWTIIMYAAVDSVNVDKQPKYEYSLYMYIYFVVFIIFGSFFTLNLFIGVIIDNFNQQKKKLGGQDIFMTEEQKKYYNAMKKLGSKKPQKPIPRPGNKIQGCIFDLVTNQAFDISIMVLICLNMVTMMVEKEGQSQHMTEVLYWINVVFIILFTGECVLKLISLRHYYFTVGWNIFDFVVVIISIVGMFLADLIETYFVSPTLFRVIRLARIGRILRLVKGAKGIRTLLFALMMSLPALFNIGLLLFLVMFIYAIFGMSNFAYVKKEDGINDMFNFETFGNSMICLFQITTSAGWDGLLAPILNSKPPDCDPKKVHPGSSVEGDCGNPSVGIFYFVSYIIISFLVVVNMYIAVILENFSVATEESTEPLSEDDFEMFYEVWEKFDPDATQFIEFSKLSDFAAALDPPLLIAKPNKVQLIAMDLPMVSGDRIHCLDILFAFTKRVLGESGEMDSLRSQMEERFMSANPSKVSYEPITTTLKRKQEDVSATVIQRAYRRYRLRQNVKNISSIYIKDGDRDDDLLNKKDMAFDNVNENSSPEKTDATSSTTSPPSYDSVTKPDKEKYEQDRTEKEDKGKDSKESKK
Structures can show the parent of a compound that is named as a salt.
# Lookup of reported IC50 keyed by entry
outcome measure: IC50 (µM)

INSERT INTO measurements (compound, endpoint_value) VALUES
  ('Cc1nc(-c2ccc(Cl)cc2)[nH]c1-c1ccccc1 [MV1502, hydrochloride]', 3.88),
  ('CC(=O)Nc1ccc(-c2nc(C)c(-c3ccccc3)[nH]2)cc1 [MV1509, hydrochloride]', 30),
  ('COc1ccc(-c2nc(C)c(-c3ccccc3)[nH]2)cc1O [MV1508, hydrochloride]', 11.5),
  ('Cc1nc(-c2cccc(C(F)(F)F)c2)[nH]c1-c1ccccc1 [MV1504, hydrochloride]', 7.95),
  ('COc1ccc(-c2nc(C)c(-c3ccccc3)[nH]2)cc1 [MV1501, hydrochloride]', 14.8),
  ('Cc1nc(-c2cccc(Cl)c2)[nH]c1-c1ccccc1', 8.04);

---

target: NaV1.5 (Homo sapiens); assay: Qube assay, NaV1.5; type: cell-based; conditions: human isoform; read-out: Qube EP IC50 NaV1.5
Sequence (Q14524 whole entry, canonical isoform): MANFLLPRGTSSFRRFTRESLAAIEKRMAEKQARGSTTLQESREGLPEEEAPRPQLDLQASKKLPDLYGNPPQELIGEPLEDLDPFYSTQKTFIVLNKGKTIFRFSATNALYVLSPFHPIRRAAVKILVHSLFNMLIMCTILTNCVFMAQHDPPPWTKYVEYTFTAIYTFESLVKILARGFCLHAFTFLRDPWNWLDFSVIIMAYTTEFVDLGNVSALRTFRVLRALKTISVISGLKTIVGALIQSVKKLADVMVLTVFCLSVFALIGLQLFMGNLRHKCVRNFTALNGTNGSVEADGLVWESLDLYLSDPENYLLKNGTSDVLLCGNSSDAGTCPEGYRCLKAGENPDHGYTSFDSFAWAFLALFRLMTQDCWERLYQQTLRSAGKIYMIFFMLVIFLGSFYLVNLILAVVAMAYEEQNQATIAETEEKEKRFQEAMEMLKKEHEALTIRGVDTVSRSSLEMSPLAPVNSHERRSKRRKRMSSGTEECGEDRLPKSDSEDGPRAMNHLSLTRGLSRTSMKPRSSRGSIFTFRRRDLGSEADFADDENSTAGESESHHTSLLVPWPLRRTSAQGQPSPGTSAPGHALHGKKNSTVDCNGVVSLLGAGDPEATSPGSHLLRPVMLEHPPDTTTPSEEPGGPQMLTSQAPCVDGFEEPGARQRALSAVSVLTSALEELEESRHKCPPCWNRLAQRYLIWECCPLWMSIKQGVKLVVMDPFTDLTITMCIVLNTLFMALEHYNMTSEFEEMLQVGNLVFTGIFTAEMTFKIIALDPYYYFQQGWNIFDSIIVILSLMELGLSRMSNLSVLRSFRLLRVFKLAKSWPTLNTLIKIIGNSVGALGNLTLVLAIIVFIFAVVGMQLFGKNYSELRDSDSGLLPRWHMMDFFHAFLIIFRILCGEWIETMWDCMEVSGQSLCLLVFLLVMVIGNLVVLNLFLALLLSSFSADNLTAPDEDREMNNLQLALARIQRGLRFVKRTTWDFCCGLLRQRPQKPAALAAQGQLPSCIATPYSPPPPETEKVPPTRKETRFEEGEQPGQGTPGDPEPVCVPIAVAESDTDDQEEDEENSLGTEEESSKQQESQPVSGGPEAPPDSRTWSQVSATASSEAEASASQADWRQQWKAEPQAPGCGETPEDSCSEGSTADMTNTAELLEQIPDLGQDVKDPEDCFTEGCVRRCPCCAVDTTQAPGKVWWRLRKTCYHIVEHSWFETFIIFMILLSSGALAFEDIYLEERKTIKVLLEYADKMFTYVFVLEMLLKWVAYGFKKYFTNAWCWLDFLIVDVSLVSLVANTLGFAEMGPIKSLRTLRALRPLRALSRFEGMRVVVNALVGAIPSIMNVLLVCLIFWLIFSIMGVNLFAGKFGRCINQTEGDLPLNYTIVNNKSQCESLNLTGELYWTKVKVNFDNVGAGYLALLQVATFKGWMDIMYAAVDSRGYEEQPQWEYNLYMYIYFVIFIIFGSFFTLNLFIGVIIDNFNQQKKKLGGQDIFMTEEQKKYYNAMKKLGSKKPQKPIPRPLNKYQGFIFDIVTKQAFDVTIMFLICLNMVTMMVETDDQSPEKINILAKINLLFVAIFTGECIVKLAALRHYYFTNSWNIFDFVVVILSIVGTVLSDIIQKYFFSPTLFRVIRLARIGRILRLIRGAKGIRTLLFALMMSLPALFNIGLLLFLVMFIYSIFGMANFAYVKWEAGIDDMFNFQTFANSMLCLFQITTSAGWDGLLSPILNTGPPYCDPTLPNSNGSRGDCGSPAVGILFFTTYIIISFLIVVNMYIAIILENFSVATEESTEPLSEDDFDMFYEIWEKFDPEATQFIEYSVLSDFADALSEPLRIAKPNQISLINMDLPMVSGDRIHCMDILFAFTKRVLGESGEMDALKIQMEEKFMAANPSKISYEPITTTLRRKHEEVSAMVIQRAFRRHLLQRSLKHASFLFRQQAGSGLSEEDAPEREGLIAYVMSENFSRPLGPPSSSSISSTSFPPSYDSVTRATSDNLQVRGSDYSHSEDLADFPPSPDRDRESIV
pIC50: −log10 of the molar value. Where a name gives a salt, the structure may show the parent alone.
# Lookup of reported pIC50 keyed by entry
outcome measure: pIC50

INSERT INTO measurements (compound, outcome_measure, endpoint_value) VALUES
  ('Cc1nc(-c2ccc(Cl)cc2)[nH]c1-c1ccccc1 [MV1502, hydrochloride]', 'pIC50', 4.90),
  ('COc1ccc(-c2nc(C)c(-c3ccccc3)[nH]2)cc1 [MV1501, hydrochloride]', 'pIC50', 4.57),
  ('COc1ccc(-c2nc(C)c(-c3ccccc3)[nH]2)cc1O [MV1508, hydrochloride]', 'pIC50', 4.93),
  ('Cc1nc(-c2cccc(Cl)c2)[nH]c1-c1ccccc1', 'pIC50', 5.00),
  ('Cc1nc(-c2cccc(C(F)(F)F)c2)[nH]c1-c1ccccc1 [MV1504, hydrochloride]', 'pIC50', 4.88),
  ('CC(=O)Nc1ccc(-c2nc(C)c(-c3ccccc3)[nH]2)cc1 [MV1509, hydrochloride]', 'pIC50', 4.80);
